test system: DU-145; assay: Cytotoxicity against human DU-145 cells assessed as reduction in cell viability measured after 72 hrs by SRB assay; assay type: functional, cell-based; conditions: DU-145, 72 h
# note: exactly 60 nM is not below, so it is FALSE; use TRUE for IC50 strictly under it

Use these answered entries as a reference point.
1) O=c1c2ccccc2n2cnc3ccc(NCCNc4c5ccccc5nc5cccc([N+](=O)[O-])c45)c1c32 ... TRUE
2) Cc1ccc([N+](=O)[O-])c2c(NCCNc3ccc(C)c4[nH]c5ccccc5c(=O)c34)c3ccccc3nc12 ... FALSE
3) Cc1ccc([N+](=O)[O-])c2c(NCCCN3CCN(CCCNc4ccc([N+](=O)[O-])c5[nH]c6ccccc6c(=O)c45)CC3)c3ccccc3nc12 ... TRUE

Attention now shifts to the item below.
Input: IC50 under 60 nM? Item: "Cc1ccc(NCCNCCNc2c3ccccc3nc3cccc([N+](=O)[O-])c23)c2c(=O)c3ccccc3[nH]c12"
Output: FALSE
